List of z-score values.
experiment: modulators of glucocorticoid suppression of NF-kB, cell-based, luciferase, IL-1B stimulus, dexamethasone (AID 624486); conditions: NF-kB luciferase reporter, IL-1B + dexamethasone, luminescence; measured here: IL-1B alone, no Dex
Value type: z-score

INSERT INTO results (compound, value_type, recorded_result) VALUES
  ('Cc1nn(C)c2cc(N(C)c3ccnc(Nc4cccc(S(N)(=O)=O)c4)n3)ccc12', 'z-score', 0.54),
  ('Cc1cccc(Oc2nccc(-c3c(-c4ccc(F)cc4)ncn3C3CCNCC3)n2)c1C', 'z-score', 0.6),
  ('COc1cccc(-n2ncc3c(N/N=C/c4ccc(C(=O)NCCN(C)C)cc4)ncnc32)c1', 'z-score', 0.67),
  ('CCCN1CCC=C(c2ccc(Nc3nc(Nc4ccccc4C(N)=O)c4cc[nH]c4n3)c(C)c2)C1', 'z-score', -0.67),
  ('COc1ccc2ncn(-c3cc(O[C@H](C)c4ccccc4C(F)(F)F)c(C(N)=O)s3)c2c1', 'z-score', -2.76),
  ('O=C1NC(=NCc2cccs2)SC1Cc1ccc2ncccc2c1 (stereo not drawn)', 'z-score', -0.14),
  ('O=S(=O)(CCOCc1ccc(-c2ccc3ncnc(Nc4ccc(OCc5cccc(F)c5)c(Cl)c4)c3c2)o1)c1ccccc1', 'z-score', -1.27),
  ('CC(=O)NC(Cc1ccc(OP(=O)(O)O)cc1)C(=O)NC1CCC(=O)N2CCCC(C(=O)NCc3ccc(O)cc3)N2C1=O (stereo not drawn)', 'z-score', 0.215);

###

system: R275C/beta2Delta; experiment: modulators of BK channel variants, profiling panel, selectivity assay, cell-based, U2OS BacMam, thallium flux, beta subunits (AID 1259406); settings: at 30 µM;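 further: initial slope of Thallos dye fluorescence rise after thallium is added; log ratio against the mean of 0.3% DMSO vehicle wells on the same plate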
Values of log fold change Tl+ flux strictly less than 0.006 map to yes, and values of at least 0.006 map to no.

INSERT INTO measurements (cpd_smiles, cat) VALUES
  ('O=C(O)c1cccnc1', 'no'),
  ('CCc1nc(N)nc(N)c1-c1ccc(Cl)cc1', 'yes'),
  ('N[C@@H](C(=O)N[C@@H]1C(=O)N2C(C(=O)O)=C(Cl)CS[C@H]12)c1ccccc1', 'no'),
  ('Oc1c(Cl)cc(Cl)c2cccnc12', 'no'),
  ('Nc1nc2c(ncn2COCCO)c(=O)[nH]1', 'yes'),
  ('CN(C)c1ccc(O)c2c1C[C@H]1C[C@H]3[C@H](N(C)C)C(=O)C(C(N)=O)=C(O)[C@@]3(O)C(=O)C1=C2O', 'yes'),
  ('CC(=O)CCCCn1c(=O)c2c(ncn2C)n(C)c1=O', 'yes'),
  ('CN(C)CCCN1c2ccccc2CCc2ccc(Cl)cc21', 'yes');

###

experiment: stimulators of insulin release from INS-1E, primary screen, cell-based, 5 mM glucose, NPC library (AID 1117329); details: rat INS-1E insulin secretion, at 10 µM, stronger effect = higher value
Value type: insulin secretion stimulation (%)

INSERT INTO results (cpd_smiles, recorded_result) VALUES
  ('CC(C)=CCNc1ncnc2c1ncn2[C@@H]1O[C@H](CO)[C@@H](O)[C@H]1O', 1.8),
  ('c1ccc2c(CC3=NCCN3)cccc2c1', -1.7),
  ('CC(C)NCCCC1(C(N)=O)c2ccccc2-c2ccccc21', 0.2);

###

experiment: CellTiter-Glo luminescent readout of SW480 viability loss, NPC library primary (AID 1117343); conditions: CellTiter-Glo luminescence; at 20 µM (top of the series)
Active and inactive are the calls of the source.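 The calls were made as follows: active = compounds that lower viability of the colon cancer cells in the luminescence readout, with no numeric limit stated; inactive = the rest.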
Possible outcomes: active, inactive

INSERT INTO results (molecule, cat) VALUES
  ('CCc1nc(N)nc(N)c1-c1ccc(Cl)cc1', 'active'),
  ('CN1CCN(C(=O)C2CCCCC2)CC1', 'inactive'),
  ('CCC(C(=O)OCCN1CCOC(c2ccccc2)C1C)c1ccccc1 (configuration not stated)', 'inactive'),
  ('C[C@H]1C[C@H]2[C@@H]3CCC4=CC(=O)C=C[C@]4(C)[C@@]3(Cl)[C@@H](O)C[C@]2(C)[C@@]1(O)C(=O)CO', 'active'),
  ('O=S(=O)(O)c1ccc2nc(-c3ccccc3)[nH]c2c1', 'inactive'),
  ('O=S1(=O)OC(c2ccc(O)cc2)(c2ccc(O)cc2)c2ccccc21', 'inactive'),
  ('Nc1nc2ccccc2n1Cc1ccc(F)cc1', 'active');

###

test: rescue of polyQ-huntingtin neuronal dysfunction in worms, whole organism, C. elegans mechanosensory neurons, N-terminal huntingtin (AID 1599); details: touch response, stronger effect = higher value
Results with a measured potency or affinity are listed apart.
List of rescue above control values.
Value type: rescue above control

INSERT INTO measurements (molecule, recorded_result) VALUES
  ('O=C(O)c1cc(=O)c2c(OCC(O)COc3cccc4oc(C(=O)O)cc(=O)c34)cccc2o1', 9.88),
  ('C=C(CC)C(=O)c1ccc(OCC(=O)O)c(Cl)c1Cl', 6.67),
  ('NC(=O)N1c2ccccc2C=Cc2ccccc21', -11.1),
  ('Nc1c2c(nc3ccccc13)CCCC2', -13.1),
  ('C[C@H](CS)C(=O)N1CCC[C@H]1C(=O)O', -12.7),
  ('CC1=C(/C=C/C(C)=C/C=C/C(C)=C/C(=O)O)C(C)(C)CCC1', 3.71),
  ('CNCCCC12CCC(c3ccccc31)c1ccccc12', 28.8),
  ('O=S(=O)(O)CCS', -8.48),
  ('OCCN(CCO)c1nc(N2CCCCC2)c2nc(N(CCO)CCO)nc(N3CCCCC3)c2n1', 18.2),
  ('COc1ccc(OC)c(C(O)CNC(=O)CN)c1 (configuration not stated)', -4.55),
  ('NCc1ccc(S(N)(=O)=O)cc1', -7.83),
  ('CN(C)CCOC(c1ccc(Cl)cc1)c1ccccn1 (configuration not stated)', -1.97),
  ('O=C(c1ccccc1)c1ccc2n1CCC2C(=O)O (configuration not stated)', -3.9),
  ('NS(=O)(=O)c1cc2c(cc1Cl)NC=NS2(=O)=O', 7.98),
  ('CCOC(=O)N1CCC(=C2c3ccc(Cl)cc3CCc3cccnc32)CC1', -2.91),
  ('CN(C)CCC=C1c2ccccc2CCc2ccccc21', 17.6),
  ('CS(=O)(=O)OCCCCOS(C)(=O)=O', -1.18),
  ('CCOC(=O)[C@H](CCc1ccccc1)N[C@@H](C)C(=O)N1Cc2ccccc2C[C@H]1C(=O)O', 4.28),
  ('O=c1[nH]cnc2[nH]ncc12', 2.94),
  ('CC(=O)OCC[N+](C)(C)C', 5.33),
  ('Nc1nc(N)c2nc(-c3ccccc3)c(N)nc2n1', 4.34),
  ('Cc1ccc(-c2cc(C(F)(F)F)nn2-c2ccc(S(N)(=O)=O)cc2)cc1', 17.2),
  ('NS(=O)(=O)c1cc2c(cc1C(F)(F)F)NC(Cc1ccccc1)NS2(=O)=O (configuration not stated)', -3.69),
  ('O=C(O)c1cccnc1', 2.74),
  ('CCCN1C[C@H](CSC)C[C@@H]2c3cccc4[nH]cc(c34)C[C@H]21', -1.5),
  ('CN(C)CCCN1c2ccccc2CCc2ccccc21', 5.01),
  ('O=C1CCC(N2C(=O)c3ccccc3C2=O)C(=O)N1 (configuration not stated)', 21.9),
  ('NCCc1ccc(O)c(O)c1', 0.54),
  ('CN(C)CCCN1c2ccccc2Sc2ccc(Cl)cc21', 0),
  ('NNC(=O)c1ccncc1', -6.58),
  ('CNC(=O)Oc1ccc2c(c1)[C@]1(C)CCN(C)[C@@H]1N2C', 1.05),
  ('CCCCNc1cc(C(=O)O)cc(S(N)(=O)=O)c1Oc1ccccc1', -11.4),
  ('NS(=O)(=O)c1cc2c(cc1C(F)(F)F)NCNS2(=O)=O', -10.8),
  ('CCCc1cc(=O)[nH]c(=S)[nH]1', -2.2),
  ('CC(COc1ccccc1)N(CCCl)Cc1ccccc1 (configuration not stated)', 11.3),
  ('CCCNCC(O)COc1ccccc1C(=O)CCc1ccccc1 (configuration not stated)', 2.07),
  ('Cc1ccc(C)c(OCCCC(C)(C)C(=O)O)c1', 6.5);

###

experiment: survival rescue of mitochondrial mutant cells in low glucose, primary screen, MELAS cybrids, Rieske KO mouse fibroblasts, CellTiter-Glo (AID 1508586); settings: MELAS cybrid survival, CellTiter-Glo 48 h, stronger effect = higher value;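 further: z relative to plate mean and SD of compound and empty wells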
# z-score >= 0.02 gives satisfied, anything below gives not satisfied

INSERT INTO measurements (molecule, cat) VALUES
  ('OCCN1C[C@H](O)[C@@H](O)[C@H](O)[C@H]1CO', 'satisfied'),
  ('N[C@@H](C(=O)N[C@@H]1C(=O)N2C(C(=O)O)=C(Cl)CS[C@H]12)c1ccccc1', 'satisfied'),
  ('c1cc(-c2cnn3nc(N4CCOCC4)ccc23)nc(NC2CC2)n1', 'satisfied'),
  ('Fc1ccc(-c2ncn(C3CCNCC3)c2-c2ccnc(Oc3cccc(F)c3)n2)cc1', 'not satisfied'),
  ('COc1ccc(-c2cc(C3CNNC3c3ccccn3)ccn2)cc1 (centres undefined)', 'not satisfied'),
  ('CCc1nccc2c1nc(-c1nonc1N)n2CC', 'not satisfied'),
  ('N#Cc1ccc(Oc2nccc(-c3c(-c4ccc(F)cc4)ncn3C3CCNCC3)n2)cc1', 'not satisfied'),
  ('COc1cccc(-n2ncc3c(N/N=C/c4ccc(C)cc4)ncnc32)c1', 'not satisfied'),
  ('CC1(C)O[C@@H]2[C@@H](CO[C@@]3(COS(N)(=O)=O)OC(C)(C)O[C@@H]23)O1', 'satisfied');
